System: Endothelial PAS domain-containing protein 1 (Homo sapiens) | Read-out: pIC50
Sequence (Q99814 whole entry, the tested form may be a part): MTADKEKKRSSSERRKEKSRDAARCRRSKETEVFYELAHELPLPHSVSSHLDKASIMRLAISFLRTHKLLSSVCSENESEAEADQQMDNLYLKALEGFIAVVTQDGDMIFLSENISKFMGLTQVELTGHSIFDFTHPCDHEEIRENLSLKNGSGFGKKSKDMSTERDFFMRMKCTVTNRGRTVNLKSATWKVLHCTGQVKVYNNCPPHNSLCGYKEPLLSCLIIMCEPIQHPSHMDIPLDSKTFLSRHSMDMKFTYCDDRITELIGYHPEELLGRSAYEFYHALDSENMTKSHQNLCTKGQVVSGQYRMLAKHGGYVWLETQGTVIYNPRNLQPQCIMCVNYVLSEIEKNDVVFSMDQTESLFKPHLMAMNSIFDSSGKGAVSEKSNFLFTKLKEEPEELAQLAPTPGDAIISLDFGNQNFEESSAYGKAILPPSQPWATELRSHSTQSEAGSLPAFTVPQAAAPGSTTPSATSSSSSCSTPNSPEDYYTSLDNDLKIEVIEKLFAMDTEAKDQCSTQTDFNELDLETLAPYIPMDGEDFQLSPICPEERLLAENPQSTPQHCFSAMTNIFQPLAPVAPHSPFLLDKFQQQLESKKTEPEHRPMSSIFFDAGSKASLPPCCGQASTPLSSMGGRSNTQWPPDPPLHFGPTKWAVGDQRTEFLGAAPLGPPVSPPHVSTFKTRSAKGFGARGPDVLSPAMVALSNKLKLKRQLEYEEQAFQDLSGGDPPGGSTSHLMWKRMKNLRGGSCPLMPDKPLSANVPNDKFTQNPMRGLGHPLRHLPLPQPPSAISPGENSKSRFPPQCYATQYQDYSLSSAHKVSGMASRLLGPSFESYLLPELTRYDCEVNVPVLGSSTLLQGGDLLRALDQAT
One number for each entry, as −log10 of the molar value.

Answered examples (5):
O=C(O)c1ccc(N=NCc2ccc3ncccc3c2)cc1; 4.19
CSc1ccc(CN=Nc2cccc(C(=O)O)c2)cc1; 5.27
COc1cc(CN=O)ccc1OCc1ccc(C(=O)O)cc1; 5.37
Cc1nn(-c2ccccc2Cl)c(Cl)c1CN=Nc1cccc(C(=O)O)c1; 4.62
CCOc1cc(CN=Nc2cccc(C(=O)O)c2)ccc1OC(=O)c1ccccc1; 5.37

Kindly consider the entry below.
Qu. Which pIC50 reading was recorded for the compound c1ccc(CN=Nc2ccc3ccccc3n2)nc1 ?
Ans. 5.25
